# Tested on: SF-539
# Test: NCI tumour cell line growth inhibition, 48 h
Calls of active or inactive are those of the source. Cut-off read from the data, not from the text of the source: active = GI50 up to about 1.1 µM and inactive = higher.
Measurement Name: GI50

Compound	Measurement Name	Reported
COc1cc([C@@H]2c3cc4c(cc3[C@@H](NC(=O)NO)[C@H]3COC(=O)[C@H]23)OCO4)cc(OC)c1O	GI50	3.6 µM (inactive)
Cc1ccc(/N=N/c2c(O)c(C(=O)O)cc3ccccc23)cc1C	GI50	> 100 µM (inactive)
COc1ccc(C2OC2C(=O)C23CC4CC(CC(C4)C2)C3)cc1 (stereo not drawn)	GI50	> 100 µM (inactive)
CC(=O)Oc1cc2c(c3ncccc13)OC(C)(C)C2	GI50	12.1 µM (inactive)
COC(=O)C1C(O)C(C)C(=O)C(C)/C=C\C=C(C)C(=O)Nc2c(C)c(OC(C)=O)c3c(c2O)C(=O)C(C)=C2OCOC(=C23)C(C)=CC(C)(O)C(O)C(C)C1O (stereo not drawn)	GI50	47.4 µM (inactive)
S=C1Cc2c(-c3ccc(Cl)cc3)cc(-c3ccccc3)nc2-c2ccccc2N1	GI50	4.01 µM (inactive)
CN(C)Cc1cc(/N=N/c2ccccc2)cc(CN(C)C)c1O	GI50	> 100 µM (inactive)
Cc1cc(C)nc(NC(=O)COc2ccc(Cl)cc2)c1	GI50	> 100 µM (inactive)
CC(=O)OC1CC[C@@]2(C)C(C1)CC(OC(C)=O)[C@@H]1C2CC(OC(C)=O)[C@]2(C)C(C(C)CC=C(c3ccc(Cl)cc3)c3ccc(Cl)cc3)CCC12 (stereo partly drawn)	GI50	67.3 µM (inactive)
CCOC(=O)Cc1ccc2c(c1O)C(=O)c1c(ccc(CC(=O)OCC)c1O)C2=O	GI50	> 100 µM (inactive)
COc1ccc(NS(=O)(=O)c2ccc3ncn(NS(=O)(=O)c4ccc(I)cc4)c(=O)c3c2)cc1	GI50	> 100 µM (inactive)
Cc1nn(C(=O)Cc2ccccc2)c2c1C(c1ccc(Cl)cc1)SC(=N)N2 (stereo not drawn)	GI50	> 100 µM (inactive)
CC(=O)CSCc1ccccn1	GI50	27 µM (inactive)

###

# Test system: SN12C
# Test: NCI tumour cell line growth inhibition, 48 h
Activity calls are given as the source filed them. No stated cut-off is given here; in the data, active = GI50 up to about 1.1 µM and inactive = higher. Positions of bridges follow the written chain, without caps; N, C: chain ends. Residues, ends and D or L forms follow the SMILES beside them.
Outcomes: active, inactive

Molecule	System Name	Class
CC1=C(N2CC2)C(=O)c2nc3n(c2C1=O)CCC3OC(=O)CCl (stereo unspecified)	SN12C	active
CCOC(=O)C(C)c1c(C(=O)c2ccc(C)nc2)c2ccccc2n1C (stereo unspecified)	SN12C	inactive
CCN1C(=O)C(=CN)C(=O)N(CC)C1=O	SN12C	inactive
COC(=O)C1CCC(=O)NCCCCC(NC(=O)C(N)CC(=O)O)C(=O)N1 (stereo not drawn) (H-Asp-Lys-Glu-OMe; lactam 2-3; configuration not given here)	SN12C	inactive
CCCC[P+](CCCC)(CCCC)C(C(=O)OC)C(C(=O)OC)=C1SC(C(=O)OC)=C(C(=O)OC)S1 (stereo unspecified)	SN12C	inactive
Cn1cc/c(=N\N=c2/ccn(C)c3ccccc23)c2ccccc21	SN12C	inactive

###

# Tested on: NCI-H522
# Test: NCI tumour cell line growth inhibition, 48 h
The source made the active and inactive calls. No stated cut-off is given here; in the data, active = GI50 up to about 1.1 µM and inactive = higher.
Measurement Name: GI50

> print(dat)
                                    molecule  system.name              reported
 1  CCN(CCCl)c1cc(CN(C)C)cc(NC(=O)C23CCC(C(=O)Nc4cc(CN(C)C)cc(N(CC)CCCl)c4)(CC2)CC3)c1     NCI-H522     0.202 µM (active)
 2  CCOC(=O)C(C)c1c(C(=O)c2ccc(C)nc2)c2ccccc2n1C (stereo unspecified)     NCI-H522    79.6 µM (inactive)
 3              O=C1C(=O)C(Br)(Br)C(Br)=C1Br     NCI-H522    2.33 µM (inactive)
 4  O=C(CC(=O)N1N=C(N(c2ccccc2)c2ccccc2)CC1c1ccccc1)Nc1cccc(Cl)c1 (stereo unspecified)     NCI-H522   > 100 µM (inactive)
 5           COc1ccc2c(CCN)c(C(=O)O)[nH]c2c1     NCI-H522   > 100 µM (inactive)
 6  N#CNc1nc(N)c(-c2ccc(Cl)cc2)c(C(=O)Nc2nccs2)n1     NCI-H522   > 100 µM (inactive)
 7  COC(=O)c1c(C)cccc1/C=C1/Cc2c(C)cccc2C1=O     NCI-H522   > 100 µM (inactive)
 8  CN(C)CCSc1cccc(-c2cc(-c3cccc(SCCN(C)C)c3)nc(SCCN(C)C)n2)c1     NCI-H522    1.61 µM (inactive)
 9            CC1=N/C(=C\c2ccc(C)cc2)C(=O)O1     NCI-H522   > 100 µM (inactive)
10         C/C(=N\Nc1nc2ccccc2[nH]1)c1ncccn1     NCI-H522  < 0.0164 µM (active)
11  C1C[N+]23CCC[N+]2(C1)CCC3 (stereo unspecified)     NCI-H522   > 100 µM (inactive)
12  C=CCN(Cc1ccncc1)C(=O)C(O)(c1ccccc1)c1ccccc1     NCI-H522    34.3 µM (inactive)
13  O=C1c2cc3c(cc2CC1Br)CCC3 (stereo unspecified)     NCI-H522    1.45 µM (inactive)
14               O=C1CCCCC/C1=C\c1ccc(Cl)cc1     NCI-H522    25.4 µM (inactive)
15  CCN(CC)Cc1cc(Nc2c3ccccc3nc3c2[nH]c2ccccc23)cc(CN(CC)CC)c1O     NCI-H522     0.624 µM (active)
16  O=C1CC[C@@]2(O)[C@H]3Cc4ccc(-c5ccccc5)c5c4[C@@]2(CCN3CC2CC2)[C@H]1O5     NCI-H522    14.7 µM (inactive)
17  COc1ccc(-c2cc(-c3ccco3)c(C#N)c(=S)n2C2OC(CO)C(O)C(O)C2O)cc1 (stereo unspecified)     NCI-H522   > 100 µM (inactive)
18  CN(C)/N=C(/c1nc2ccc([N+](=O)[O-])cc2nc1O)C(O)c1ccco1 (stereo unspecified)     NCI-H522    8.57 µM (inactive)
19      C=C(C)c1nc(Oc2ccccc2)nc(Oc2ccccc2)n1     NCI-H522    1.16 µM (inactive)
20              Cc1c(C(=O)O)n2cnnc2c2ccccc12     NCI-H522   > 100 µM (inactive)
21  CCOC(=O)c1nc2ccccc2nc1NCc1cc(OC)c(OC)c(OC)c1     NCI-H522      33 µM (inactive)
